target: HLA-A*26:01
assay-name: IEDB peptide-MHC binding, purified MHC/direct/fluorescence; filed as Kd, often an IC50 or EC50 that approximates it; bounds were set here for any values at or beyond the usual limits of such assays
test-context: source organism: Shigella flexneri
pKd: −log10 of the molar value.
attribute-measured: pKd

| entry-sequence | target | attribute-measured | experimental-result |
| --- | --- | --- | --- |
| DRLHPPNKL | HLA-A*26:01 | pKd | ≤ 4.70 |

---

target: HLA-A*02:01
assay-name: IEDB peptide-MHC binding, purified MHC/direct/fluorescence; filed as Kd, often an IC50 or EC50 that approximates it; bounds were set here for any values at or beyond the usual limits of such assays
test-context: source organism: Francisella tularensis subsp. tularensis

| entry-sequence | Kd |
| --- | --- |
| FLYGWLFIL | 102 nM |

---

target: HLA-A*02:12
assay-name: IEDB peptide-MHC binding, purified MHC/direct/fluorescence; filed as Kd, often an IC50 or EC50 that approximates it; bounds were set here for any values at or beyond the usual limits of such assays
test-context: source organism: Bacillus cereus H3081.97

| entry-sequence | Kd |
| --- | --- |
| YSTVRDLFL | ≥ 20 µM |

---

target: HLA-A*33:01
assay-name: IEDB peptide-MHC binding, purified MHC/competitive/radioactivity; filed as Kd, often an IC50 or EC50 that approximates it; bounds were set here for any values at or beyond the usual limits of such assays
test-context: source organism: Vaccinia virus WR
pKd: −log10 of the molar value.
Quick reference: pKd of the listed items.

| entry-sequence | target | prefix-operator | pKd |
| --- | --- | --- | --- |
| MSSSVDVDIY | HLA-A*33:01 | ≤ | 4.53 |
| STELIRRVR | HLA-A*33:01 | = | 5.88 |
| TIDKSSPLY | HLA-A*33:01 | ≤ | 4.11 |
| VVMAYVGIK | HLA-A*33:01 | ≤ | 4.63 |
| QAELTSNCTR | HLA-A*33:01 | = | 6.09 |
| PSRSKMLKR | HLA-A*33:01 | ≤ | 4.29 |
| GQRCHFIKK | HLA-A*33:01 | = | 4.88 |
| QLCYCPASKK | HLA-A*33:01 | ≤ | 4.23 |
| YVKALTKNY | HLA-A*33:01 | ≤ | 4.11 |
| KALMQLTTK | HLA-A*33:01 | = | 4.73 |
| TFVNFNSVK | HLA-A*33:01 | = | 6.71 |
| NFIPIIYSK | HLA-A*33:01 | = | 7.59 |
| KIKLILANK | HLA-A*33:01 | ≤ | 4.59 |
| IMVASDVCKK | HLA-A*33:01 | = | 5.15 |
| LILNFLDWIK | HLA-A*33:01 | = | 5.14 |
| FSPENKAFK | HLA-A*33:01 | = | 5.41 |
| SMGFKVTTR | HLA-A*33:01 | = | 6.78 |
| GLFDFVNFVK | HLA-A*33:01 | = | 5.92 |
| VSKHWELTNK | HLA-A*33:01 | = | 4.92 |
| AIEPSGNNY | HLA-A*33:01 | ≤ | 4.11 |
| TIQRFSSLRR | HLA-A*33:01 | = | 8.01 |

This collection of values is drawn from the Immune Epitope Database (IEDB).
